These measurements were taken from PubChem BioAssay.

Assay: basal HepG2 mitochondrial membrane potential changes, profiling panel, cell-based, JC-1 fluorescence, 24 h, 100 nL compound (AID 1167); also: test concentration not given here
Conditions: higher = more signal
quantity: z-score

# lookup: z-score of CC(C)(C)N1C(=O)[C@H]2[C@H]3[C@H](O)[C@H](O)CC(=NNC(=O)OCc4ccccc4)[C@@H]3CC[C@H]2C1=O
-0.813

# lookup: z-score of CC1(C)O[C@H]2OC([C@H](O)CON3C(=O)c4ccccc4C3=O)[C@H](O)[C@H]2O1 (some centres undefined)
-0.249

# lookup: z-score of COc1ccc(COC(=O)NN=C2C[C@@H](O)[C@@H](O)[C@@H]3[C@@H]4C(=O)N(C[C@@H]5CCCO5)C(=O)[C@@H]4CC[C@H]23)cc1
-0.402

# lookup: z-score of CC(CCN1CCCc2nc(C)c(C)cc21)=NO[C@@H](C)c1cn([C@H](CO)Cc2ccccc2)nn1
0.38

====

Assay: PSAC antagonists in infected red cells, primary screen, cell-based, P. falciparum Indochina, OD700, 18 h (AID 1157)
Settings: P. falciparum Indochina infected erythrocytes, osmotic lysis OD700, 18 h; higher = more signal, called active from +8 up or from −8 down
Activity calls are given as the source filed them.
z-score by entry:

In [3]: df
Out[3]:
                                   compound  quantity   observed_result
0  C=CC[C@@H]1C=C[C@H](ON=C(C)CCN2CCCCc3nc(C)c(C)cc32)[C@@H](CO)O1   z-score  0.392 (inactive)
1  O=C1C2=CC[C@H]3C(=O)N(C4CCCCC4)C(=O)[C@H]3[C@H]2[C@H](O)[C@@H]2O[C@H]12   z-score  -1.56 (inactive)
2  C=CC[C@@H]1C=C[C@H](ON=C[C@@H](NS(=O)(=O)c2ccc(C)cc2)[C@H](C)C=CCC(=O)OC)[C@@H](CO)O1   z-score  0.343 (inactive)

# lookup: z-score of CCCNC(=O)OC[C@H]1O[C@H](CCON=C2c3cc(OC)ccc3O[C@H](c3cccc(OC)c3)[C@H]2O)C=C[C@@H]1Oc1ccc(OC)cc1
0.563 (inactive)

# lookup: z-score of COC(=O)CC=C[C@@H](C)[C@@H](C=NOC[C@@H](C)[C@H](OCc1ccccc1)C(C)C)OC
-0.0741 (inactive)

# lookup: z-score of CCN1C(=O)[C@H]2[C@H]3[C@H](O)[C@H](O)CC(=NO[C@H](C)c4cn([C@@H]5COC[C@H]5O)nn4)[C@@H]3CC[C@H]2C1=O
0.564 (inactive)

====

composite z-score by entry:
Tested on: Human papillomavirus type 1a protein E7 (residues 44-93)
Experiment: HPV1a E7 fragment binders on microarrays, primary screen, biochemical, small-molecule microarray, residues 44-93, 635 nm fluorescence (AID 1108);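 also: E7 fragment applied at 1 µg/mL in TBST for 1 h at 4 C; score combines spot fluorescence with its signal to noise ratio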
Conditions: small-molecule microarray binding, fluorescence 635 nm; higher = more signal
Response field accepts a number only; no unit should be typed.

# count of solved cases: 4
>>> print(df.to_string())
                                   compound  observed_result
0  CCN1C(=O)[C@H]2[C@H]3[C@H](O)[C@H](O)CC(=NOC(C)CN4CCCc5nc(C)c(C)cc54)[C@@H]3CC[C@H]2C1=O (stereo partly drawn)            0.562
1  CON=C1c2cc(OC)ccc2O[C@H](c2cccc(OC)c2)[C@H]1O            0.365
2  O=C1[C@H]2[C@H]3[C@H](O)[C@H](O)CC(=NO[C@@H]4O[C@H](CO)[C@@H](O)[C@H](O)[C@H]4O)[C@@H]3CC[C@H]2C(=O)N1C1CCCCC1            0.578
3  CCCNC(=O)OC[C@H]1O[C@H](CCON=C[C@@H](C)[C@H](OCc2ccccc2)C(C)C)C=C[C@@H]1Oc1ccc(OC)cc1            0.427

# lookup: composite z-score of COC(=O)CC=C1c2ccccc2[C@H](OC)[C@H]1C
-0.887

# lookup: composite z-score of COc1ccc(OC[C@H]2CN3[C@@H](CC[C@@H](C)[C@@H]3c3ccc(Br)cc3)C(=O)O2)cc1
0.191

# lookup: composite z-score of C=CC[C@@H]1C=C[C@H](ON=C2C[C@@H](O)[C@@H](O)[C@@H]3[C@@H]4C(=O)N(CC)C(=O)[C@@H]4CC[C@@H]23)[C@@H](CO)O1
-0.573

====

Assay: fission yeast growth modulation, primary screen, strain 972, OD600, 24 h, no modulator (AID 1090);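 also: basal condition with compound alone and no growth modifier present; test concentration not given here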
Conditions: S. pombe 972 growth, higher = more signal, called active from +8 up or from −8 down
Active and inactive are the calls of the source.
z-score by entry:

# count of solved cases: 2
molecule	quantity	observed.result
C[C@@H](c1ccccc1)N1C(=O)[C@H]2[C@H]3[C@H](O)[C@H](O)CC(=NOCc4ccccc4)[C@@H]3CC[C@H]2C1=O	z-score	-0.293 (inactive)
COC(=O)[C@H](C)NC(=O)CCC1CC(OC(=O)NCCc2ccc(F)cc2)CC2(CCCC(COC(=O)NCCc3ccccc3OC)O2)O1 (some centres not stated)	z-score	0.89 (inactive)

# lookup: z-score of C[C@@H]1CC[C@@H](C(=O)O)N[C@H]1c1cccc(N2CCOCC2)c1
-0.623 (inactive)

# lookup: z-score of CC(C)(C)N1C(=O)[C@H]2[C@@H]3C(=CC[C@H]2C1=O)C(=O)[C@H]1O[C@H]1[C@H]3O
-4.57 (inactive)

====

Experiment: small-molecule microarray binders of probe aCHRDL2, primary screen, biochemical, biotinylated probe, 635/667 nm fluorescence (AID 1100)
Settings: higher = more signal
quantity: composite z-score
Response field accepts a number only; no unit should be typed.

>>> print(df.to_string())
                                   molecule  observed_result
0  CCOC(=O)[C@H](CC(C)C)NC(=O)CCC1CC(OC(=O)NCCc2ccc(F)cc2)CC2(CCCC(COC(=O)NCCOC)O2)O1 (stereo partly specified)           -0.411
1  CC(C)[C@@H](OCc1ccccc1)[C@H](C)C=NOC[C@@H](O)[C@H]1O[C@@H]2OC(C)(C)O[C@@H]2[C@H]1O           -0.609
2  COC(=O)[C@@H]1CC[C@H](C)[C@@H](c2ccc(C)cc2)N1C(=O)c1ccc(C=NO[C@@H](C)c2cc(-c3c(C)cc(C)cc3C)no2)cc1           -0.144
3  C[C@H]1C=CCC(=O)OC[C@H](C)C(=O)N2CCC[C@H]2C(=O)OC1            -1.53

# lookup: composite z-score of CC1(C)O[C@H]2O[C@H]([C@H](O)CON=C3[C@H]4CCn5c(=O)n(-c6ccccc6)c(=O)n5[C@H]4[C@H](O)[C@@H]4O[C@H]34)[C@H](O)[C@H]2O1
-0.181

# lookup: composite z-score of CCOC(=O)[C@H](Cc1ccccc1)NC(=O)CCC1CC(OC(=O)NCc2cccc3ccccc23)CC2(CCCC(COC(=O)NCC3CCCCC3)O2)O1 (stereo partly specified)
-0.53

====

System: Neuregulin-1 EGF-like domain
Assay: binders of neuregulin-1 EGF-like domain, primary screen, biochemical, small-molecule microarray, 635 nm fluorescence (AID 1081);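 also: binding of the protein to compounds printed on small-molecule microarray slides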
Details: small-molecule microarray binding, higher = more signal
quantity: composite z-score

# count of solved cases: 3
compound	composite z-score
CC(C)=CCCC(C)=CCON=C1C[C@@H](O)[C@@H](O)[C@@H]2[C@@H]3C(=O)N(Cc4ccc5c(c4)OCO5)C(=O)[C@@H]3CC[C@@H]12	0.974
COC(=O)CC=C[C@@H](C)[C@@H](C=NOC[C@@H](O)COCc1ccco1)NS(=O)(=O)c1ccc(C)cc1	-0.929
CC(C)C(=O)N[C@H]1CCCN1C(=O)C=Cc1ccccc1	0.72

// switching to the query compound
# lookup: composite z-score of CCOC(=O)[C@H](Cc1ccccc1)NC(=O)CCC1CC(OC(=O)NCc2cccc3ccccc23)CC2(CCCC(COC(=O)NCc3ccc4c(c3)OCO4)O2)O1 (some centres undefined)
1.07

====

composite z-score by entry:
System: glycogen synthase kinase-3 (GSK3A per assay name; protocol says GSK3B)
Experiment: GSK3 binders on small-molecule microarrays, primary screen, biochemical, small-molecule microarray, 635 nm fluorescence, GSK3A (AID 1103); also: the record names both GSK3A and GSK3B
Conditions: small-molecule microarray binding, fluorescence 635 nm; higher = more signal

# count of solved cases: 4
>>> df
                                   molecule  observed_result
0  COC(=O)[C@@H]1CC[C@H](C)[C@@H](c2ccc(C)cc2)N1C(=O)c1ccc(C=NO[C@@H](C)c2cc(-c3c(C)cc(C)cc3C)no2)cc1            0.738
1  COC(=O)[C@H](C)NC(=O)CCC1CC(OC(=O)NCCc2ccc(F)cc2)CC2(CCCC(COC(=O)NCCc3ccccc3OC)O2)O1 (stereo not given in full)             1.05
2  CO[C@H]1COC(=O)CCC[C@H](C)[C@H](OC)COC(=O)CC=C[C@@H]1C           0.0951
3  CCOC(=O)[C@H](CC(C)C)NC(=O)CCC1CC(OC(=O)NCc2ccc3c(c2)OCO3)CC2(CCCC(COC(=O)NCc3ccccc3)O2)O1 (stereo not given in full)            0.486

// switching to the query molecule
# lookup: composite z-score of CCOC(=O)[C@H](CC(C)C)NC(=O)CCC1CC(OC(=O)NCc2ccc3c(c2)OCO3)CC2(CCCC(COC(=O)NCCOc3ccccc3)O2)O1 (stereo not given in full)
0.994
